Lab note: compare intrinsic clearance, human liver microsomes against 90 mL/min/kg. Equal or greater, write yes (1). Smaller, write no (0).

>>> print(df.to_string())
                                    molecule  answer_label
 0  NC1CCCC(C(=O)Nc2cccc(N3CCNC3=O)c2)C1 (centres undefined)        no (0)
 1  O=C(Cn1nc(Cc2ccccc2)c2ccccc2c1=O)NCc1ncc[nH]1        no (0)
 2       CN1C(=O)COc2cc(NC(=O)C3CC=CC3)ccc21        no (0)
 3  O=C([C@H]1CCCN(Cc2ccc(F)cc2)C1)N1CCc2ccccc2C1       yes (1)
 4  N#CC1(NC(=O)Cc2cc3c(ccc4ccccc43)o2)CCOCC1        no (0)
 5  COc1cc2c(cc1OC)[C@@H]1Cc3ccc(OC)c(OC)c3CN1CC2        no (0)
 6                   CN1CCN(CCOc2ccccc2N)CC1        no (0)
 7  C=CC(=O)N1C[C@H](Nc2ncnc3[nH]ccc23)CC[C@@H]1C        no (0)
 8  CC(C)c1cc(C(C)C)c(CC(=O)NS(=O)(=O)Oc2c(C(C)C)cccc2C(C)C)c(C(C)C)c1        no (0)
 9  COc1cc2nc(-c3ccc(N4CCN(C)CC4)cc3)nc(NCCN3CCOCC3)c2cc1OC        no (0)
10  COc1cc(C(C)C)c2c(c1)S(=O)(=O)N(COc1cc(=O)n3cccc(OCCN4CCCCC4)c3n1)C2=O       yes (1)
11              CCc1nccn1Cc1nc(N)nc(N(C)C)n1        no (0)
12           c1nc(NC2CCN(C3CC3)CC2)c2sccc2n1        no (0)
13  Cc1cc(C(=O)N2CCN(C(=O)C3CCC3)CC2)c(O)cn1        no (0)
14  COc1ccccc1CNC(=O)C(C)N1CCCN(c2ccccc2C#N)CC1 (centres undefined)       yes (1)
15          Cc1ccc(Cn2nc(C)c(C(N)=O)c2Cl)cc1        no (0)
16  O=C(Nc1nc2cc(C(F)(F)F)cc(NC3CC3)n2n1)c1cccnc1        no (0)
17    CNC(=O)c1cnc(/C=C/c2csc(-c3cccs3)n2)s1        no (0)
18          Cc1ccc(C(=O)N(C)Cc2ccccn2)c(O)c1        no (0)
19                 Cc1cc(C(=O)O)nn1-c1ccccn1        no (0)
20        Nc1c(F)ccc2cnc(-n3ccc4ccncc43)cc12       yes (1)
21               Cn1cnnc1NC(=O)c1cnn2c1CCCC2        no (0)
22              c1ccc(-c2noc(Cn3ccnc3)n2)nc1        no (0)
23  Cc1cccc(NC(=O)CN(C)Cc2nc3ccccc3c(=O)[nH]2)c1C        no (0)

====

Threshold 3: MDR1-MDCK efflux ratio strictly smaller gives Fulfilled, otherwise Not fulfilled.

In [3]: df
Out[3]:
                                    compound   answer_label
 0  O=C1Oc2nc3cc4c(cc3cc2CN1CCN1CCOCC1)OCCO4  Not fulfilled
 1             N#Cc1ccc2nc(NCCn3ccnc3)ccc2c1  Not fulfilled
 2  CC1(C)Cc2cc(NC(=O)c3cnn4cccnc34)c(OCC3CC3)nc2O1      Fulfilled
 3       Cc1cnn(CC2CC2)c1NC(=O)/C=C/c1ccccc1      Fulfilled
 4  CCN(c1ccccc1)S(=O)(=O)c1ccc(C(=O)Nc2ccccc2C(C)=O)cc1      Fulfilled
 5  N#Cc1cccc(-c2ccc(=O)n3c2[C@@H]2C[C@@H](CN(Cc4cccs4)C2)C3)c1  Not fulfilled
 6          CC(C)(C)C(=O)Nc1nnc(Cc2ccccc2)s1      Fulfilled
 7              CCOCC(=O)Nc1cccc(CN2CCCC2)c1      Fulfilled
 8             CCn1nccc1-c1cc(CC2CCNCC2)ncn1  Not fulfilled
 9          CN(Cc1cccc(C#N)c1)c1cnc2ccccc2n1      Fulfilled
10  COc1ccccc1-c1nnc([C@H]2CCN(Cc3ccccc3C)C2)o1      Fulfilled
11      O=c1cc(CN2CCCCc3ccccc32)[nH]c2ccnn12  Not fulfilled
12  O=C(Nc1ccc(C(=O)O)c(O)c1)c1ccc(NC(=O)c2cccs2)cc1      Fulfilled
13  Cc1noc(C)c1-c1cc(-c2ccccc2Cl)nc(C2CC2)n1      Fulfilled
14              COc1ccc(CCC(=O)N2CCCNCC2)cc1      Fulfilled
15            CC(C)c1nnc(NCc2cc(F)cc(F)c2)o1      Fulfilled
16  O=c1[nH]c2nc(N3CCc4ccccc4C3)ncc2c(=O)n1-c1ccccc1      Fulfilled
17  COc1cccc(OC)c1-c1cc(C(=O)N[C@@H](CC(C)C)C(=O)O)nn1-c1ccnc2cc(Cl)ccc12  Not fulfilled
18   Cc1nc2cc(=O)[nH]n2c(C)c1CC(=O)OC1CCCCC1      Fulfilled
19               O=C(COCC1CC1)N1CCCc2ncccc21      Fulfilled
20  NC[C@@](O)(c1ccc(Cl)cc1)c1ccc(-c2cn[nH]c2)cc1      Fulfilled
21       CC(C)(C)c1ccc(CN2CCC(C(N)=O)CC2)cc1      Fulfilled
22                 CCCCN(C)C(=O)Nc1cc(C)ccn1      Fulfilled
23    Cc1nc(N2CCc3c(ncn3C)C2)c2c(C)c(C)sc2n1      Fulfilled
24  Cc1cc(Nc2nnc(C)s2)cc(C2CN(C(=O)Cc3csc(C)n3)CCO2)n1 (stereo not drawn)  Not fulfilled
25     O=c1c2sccc2nc2n1CCN(Cc1ccc(F)cc1F)CC2      Fulfilled
26    CCN(CCO)Cc1nc2cc(OC)c(OC)cc2c(=O)[nH]1  Not fulfilled
27           Cn1cc(CCNC(=O)N2CCc3sccc3C2)cn1      Fulfilled
28          Cc1ccc(Cn2nccc2NC(=O)c2ccncc2)o1      Fulfilled
29  Cc1cccc(NC(=O)CN(C)Cc2nc3ccccc3c(=O)[nH]2)c1C  Not fulfilled
30     COc1ccc(CN2CC(c3ccncc3)C2)cc1Cn1cccn1  Not fulfilled
31          CN(CC1(CO)CCC1)C(=O)CCN1CCCCC1=O  Not fulfilled
32            Cc1ccccc1NC(=O)Cn1nnc(C2CC2)n1      Fulfilled
33   c1ccc(N2CCOCC2)c(CNc2cc(N3CCCC3)ncn2)c1      Fulfilled
34          CN1CCC(NC(=O)COc2ccc(C#N)cc2)CC1      Fulfilled
35         CN1CCc2nc(NC(=O)c3ccc(Cl)s3)sc2C1      Fulfilled
36        O=C(NC1CCCCC1)C1CCN(c2ccncc2Cl)CC1      Fulfilled
37  Cc1cc2nc(CCC(=O)N3CCC(c4ccc(C(=O)N(C)C)c(N)n4)CC3)[nH]c2cc1C  Not fulfilled
38  Cc1nnc(-c2ccc3occ(-c4ccc(S(C)=O)cc4)c3c2)o1 (stereo not drawn)      Fulfilled
39          CCc1nc2cc(-c3c(OC)cccc3OC)ccc2o1      Fulfilled
40     Cc1ccc(C(=O)Nc2cccc(C(=O)N(C)C)c2)cn1  Not fulfilled
41     O=c1oc2cccnc2n1Cc1ncc(-c2ccc(F)cc2)o1      Fulfilled
42      c1ccc2c(N3CCn4c(nnc4C4CC4)C3)ncnc2c1  Not fulfilled
43              O=C(NC1CC1)c1cccnc1Oc1ccccc1      Fulfilled
44               Nc1nnc(SCCSC2CCCCC2)n1C1CC1  Not fulfilled
45                   CONC(=O)c1c(C)nn(C)c1Cl      Fulfilled
46  O=C(c1ccc(F)cc1)N1CCN(CC(=O)N2CCCC2=O)CC1  Not fulfilled
47  O[C@@H]1C[C@@H](c2nc(-c3cccnc3)no2)N(CCCc2ccccc2)C1      Fulfilled

====

Catalogue of intrinsic clearance, rat liver microsomes readings, one per entry.
result-type: intrinsic clearance, rat liver microsomes

>>> df
                            structure_smiles   recorded_result
 0      CN(Cc1ccccc1)C(=O)c1ccc(-n2cccn2)nc1    4990 mL/min/kg
 1  CC(C)c1ccc2c(c1)[C@H](NC(=O)Cn1ccnn1)CCC2     297 mL/min/kg
 2  Cc1oc(C)c(C(=O)N(C)Cc2ccccc2N2CCOCC2)c1C    5800 mL/min/kg
 3  CC(C)[C@H](O)C(=O)N[C@@H](C)C(=O)N[C@@H]1C(=O)N(C)CCc2ccccc21    14.2 mL/min/kg
 4    CCCN(C)C(=O)Nc1cccc(-c2nnc3n2CCCCC3)c1    44.5 mL/min/kg
 5  CCn1ncc(CN(C)C(=O)c2ccc(-c3nc(C)cc(C)n3)cc2)c1C     278 mL/min/kg
 6  Cc1nn(C)c2sc(C(=O)N3CCC(C(=O)O)(c4ccccc4)CC3)cc12  ≤ 10.7 mL/min/kg
 7  CC(C)c1ccc(-c2cc3c(=O)n(CCC(=O)NCCN(C)C)ccn3n2)cc1     142 mL/min/kg
 8            Cc1cccc(NC(=O)c2noc3c2CCCC3)n1    1070 mL/min/kg
 9          O=C(NCCc1csc(N2CCCC2)n1)N1CCSCC1     882 mL/min/kg
10        Fc1ccc(NCc2cccc(OCCN3CCOCC3)c2)nc1     280 mL/min/kg
